- target: Alkaline phosphatase, tissue-nonspecific isozyme (Homo sapiens, UniProt P05186)
- Sequence (P05186 whole entry): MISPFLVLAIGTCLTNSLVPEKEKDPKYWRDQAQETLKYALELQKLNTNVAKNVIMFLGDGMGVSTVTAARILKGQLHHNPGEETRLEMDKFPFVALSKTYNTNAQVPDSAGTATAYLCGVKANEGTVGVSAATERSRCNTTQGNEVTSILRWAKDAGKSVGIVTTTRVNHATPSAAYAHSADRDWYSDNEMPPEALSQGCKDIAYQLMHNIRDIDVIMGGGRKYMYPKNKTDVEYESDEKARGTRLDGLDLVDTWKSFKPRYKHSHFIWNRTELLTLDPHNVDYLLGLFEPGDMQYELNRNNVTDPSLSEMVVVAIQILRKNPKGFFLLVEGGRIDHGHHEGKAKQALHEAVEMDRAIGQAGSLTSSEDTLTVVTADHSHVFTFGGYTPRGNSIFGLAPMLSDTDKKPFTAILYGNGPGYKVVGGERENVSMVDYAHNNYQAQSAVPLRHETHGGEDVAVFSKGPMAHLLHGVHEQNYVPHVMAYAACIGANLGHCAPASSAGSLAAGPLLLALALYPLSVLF
- test details: human TNAP enzyme inhibitors, SAR follow-up, biochemical, luminescent, dose response (AID 1056)
Activity calls are given as the source filed them.
Lab note: assign the record to one of active, inactive

Ask: Would you mind telling me which call this test gave O=C(CNC1CCCCC1)c1ccc(O)c(O)c1 ?
Result: inactive

Ask: Now give it for COc1ccc(S(=O)(=O)n2cc(C(N)=O)c3ccccc32)cc1 too.
Result: inactive

Ask: Now give it for O=S(=O)(Nc1ccc2ncccc2c1)c1ccccc1OC(F)(F)F too.
Result: inactive

Ask: Now give it for Cc1cc(C(=O)NCc2ccc(O)c(O)c2)c(C)o1 too.
Result: active

* * *

- target: Large T antigen (Simian virus 40);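 also: Confirmatory-stage PubChem screen for compounds that inhibit SV40 T antigen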
- Sequence (P03070 whole entry): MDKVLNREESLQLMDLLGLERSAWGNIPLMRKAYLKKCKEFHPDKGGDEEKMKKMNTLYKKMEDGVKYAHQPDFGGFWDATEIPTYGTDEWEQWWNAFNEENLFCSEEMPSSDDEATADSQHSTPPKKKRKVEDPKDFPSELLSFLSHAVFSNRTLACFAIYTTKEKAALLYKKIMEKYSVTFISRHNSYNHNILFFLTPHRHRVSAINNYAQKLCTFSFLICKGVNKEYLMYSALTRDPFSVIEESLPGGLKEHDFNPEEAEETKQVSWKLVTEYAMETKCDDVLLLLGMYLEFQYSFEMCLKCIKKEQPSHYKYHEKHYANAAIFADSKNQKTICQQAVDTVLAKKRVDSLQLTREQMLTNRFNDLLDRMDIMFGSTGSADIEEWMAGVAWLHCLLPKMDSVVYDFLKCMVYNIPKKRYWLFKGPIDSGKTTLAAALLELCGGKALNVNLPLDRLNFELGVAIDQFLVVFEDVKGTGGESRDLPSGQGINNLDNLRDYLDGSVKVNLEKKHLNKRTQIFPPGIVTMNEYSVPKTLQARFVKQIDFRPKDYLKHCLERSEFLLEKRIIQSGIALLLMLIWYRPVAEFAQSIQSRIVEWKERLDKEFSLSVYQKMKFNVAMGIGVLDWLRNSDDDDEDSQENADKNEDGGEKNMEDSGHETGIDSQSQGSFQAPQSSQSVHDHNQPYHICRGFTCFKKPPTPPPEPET
- Type: functional, Betapolyomavirus macacae
Activity calls are given as the source filed them.
So I've got a bunch of compounds here, and I need their IC50 values.

Ask: # IC50 lookup, item Oc1ccc(/C=N/c2ccc(N3CCOCC3)cc2)c(O)c1
Result: 12.9 µM (active)

Ask: Now give it for Oc1ccc(-c2csc(Nc3ncccn3)n2)cc1O too.
Result: 14 µM (active)

Ask: Now give it for Cc1oc2c(O)c(O)ccc2c(=O)c1-c1cnn(-c2ccccc2)c1 too.
Result: 10.2 µM (active)

Ask: Now give it for Oc1cccc(/C=N/NC(=S)Nc2cccnc2)c1O too.
Result: 15 µM (active)

Ask: Now give it for Cc1cccc(N2CSC3=C(C#N)C(c4ccc(C)o4)CC(=O)N3C2)c1 (stereo unspecified) too.
Result: 11.4 µM (active)

Ask: Now give it for COC(=O)C1=C(O)/C(=C/c2cccc(OC)c2O)N=C1C too.
Result: 14.8 µM (active)

* * *

- target: Replicative DNA helicase DnaB (Mycobacterium tuberculosis, UniProt P9WMR3)
- test details: DnaB intein splicing inhibitors, dose response, biochemical, cell-free fluorescence (AID 449749)
- Type: functional
Active and inactive are the calls of the source.
Lab note: assign the record to one of active, inactive

Ask: Would you mind telling me which call this test gave Cn1nnnc1Sc1ncnc2scc(-c3ccc(F)cc3)c12 ?
Result: active

Ask: Now give it for O=C(CN(c1cccc(Br)c1)S(=O)(=O)c1ccccc1)N/N=C/c1cc([N+](=O)[O-])ccc1O too.
Result: inactive

Ask: Now give it for COc1cccc(-c2[nH]nc3c2C(c2ccsc2)C(C#N)=C(N)O3)c1 (stereo not given) too.
Result: active

Ask: Now give it for Cc1n[nH]c2c1C(c1c[nH]c3ccccc13)C(C#N)=C(N)O2 (stereo not given) too.
Result: active

Ask: Now give it for CS(=O)(=O)C1=NSC2=NC(=O)/C(=C\c3ccc(OC(=O)c4ccco4)cc3)C(=N)N21 too.
Result: inactive

* * *

So I've got a bunch of molecules here, and I need their AC50 values.
- Tested on: INS1
- test details: beta cell apoptosis inhibitors, cytokine rescue, dose response, luminescence, retest (AID 449756);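 also: cell death triggered by IL-1 beta plus TNF-alpha plus IFN-gamma mixture; protective hits raise ATP signal compared with cytokine alone wells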
- Assay type: functional, cell-based
- settings: Rattus norvegicus
Active and inactive are the calls of the source.

Ask: # AC50 lookup, item Cc1cc(C2CCCCC2)n(O)c(=O)c1 [CICLOPIROX OLAMINE]
Result: 0.78 µM (active)

Ask: Now give it for O=C(NCC1COc2ccccc2O1)c1cccc(S(=O)(=O)NCc2ccccc2)c1 (centres undefined) too.
Result: 8.07 µM (active)

Ask: Now give it for CCCn1c(Nc2nc3ccccc3n2C)nc2ccccc21 too.
Result: 7.73 µM (active)

Ask: Now give it for Oc1cccc(/C=N/NC(=S)Nc2cccnc2)c1O too.
Result: 0.976 µM (active)
